meta.source: PubChem BioAssay (NCATS)

assay: Quantitative highthroughput screen to assess conditional lethalithy of P12 Ichikawa cells grown in Human Plasma-Like Medium with dialyzed fetal bovine serum (HPLM+ds) (AID 1963879); conditions: ATP luminescence, 48 h; viability; series mostly up to 45.8 µM; further: nearly all actives have a fitted effect of over 35% in size; further: potency means the concentration at half of the fitted maximal effect
Results filed as inconclusive are left out. Calls of active or inactive are those of the source. The call rests on the fitted dose curve; in most records, active means well fitted cell-killing curve with a large enough effect; inconclusive means small, poorly fitted or top-dose-only effect; inactive means flat fitted curve, though single readings scatter.
Readout kind: Potency

The following compounds have reported results that may help.
O=C(O)C1CCCN(CCC=C(c2ccccc2)c2ccccc2)C1 (stereo not given); inactive
COc1cc(CCc2cc(NC(=O)c3ccc(N4C[C@@H](C)N[C@@H](C)C4)cc3)n[nH]2)cc(OC)c1; 20.9 µM (active)
COc1ccccc1N1CCN(CC(O)COc2cccc3ccccc23)CC1 (stereo not given); inactive
CC(C)(C)C(=O)Oc1ccc(S(=O)(=O)Nc2ccccc2C(=O)NCC(=O)O)cc1; inactive
COc1cc2ncnc(Nc3cc(Br)c(O)c(Br)c3)c2cc1OC; inactive
O=C1CSC(=O)N1C(CCc1ccncc1)COc1ccc(-c2cccc([N+](=O)[O-])c2)cc1 (stereo not given); inactive
Nc1ccn(C[C@@H](CO)OCP(=O)(O)O)c(=O)n1; inactive
CC(C)(O)CC(=O)NCCn1ccc2ncnc(Nc3ccc(Oc4cccc(C(F)(F)F)c4)c(Cl)c3)c21; 9.35 µM (active)
Oc1cc2c(cc1O)C1c3ccc(O)c(O)c3OCC1(O)C2 (stereo not given); inactive

**Q:** Quick check: Potency of CN(C)c1cccc(-c2c3c(=O)n(-c4ccccc4Cl)[nH]c3cc(=O)n2C)c1 ?
**A:** 0.831 µM (active)

====

test: Quantitative highthroughput screen to assess conditional lethalithy of SEM cells grown in Human Plasma-Like Medium with dialyzed fetal bovine serum (HPLM+ds) (AID 1963882); settings: SEM B-ALL cells in HPLM+ds, CellTiter-Glo viability, 48 h; series mostly up to 45.8 µM; further: nearly all actives have a fitted effect of over 35% in size
Records with an inconclusive call do not appear. Active and inactive are the calls of the source. Calls follow the shape of the dose curve; as a rule, active = well fitted cell-killing curve with a large enough effect; inconclusive = small, poorly fitted or top-dose-only effect, or effect the other way; inactive = no such curve, though single readings can be large or run the other way.
One label from this list, please: active, inactive

**Q:** Hey, what did the test say about CCOc1ccccc1N=Nc1c(C)[nH]n(-c2nc(-c3ccccc3)cs2)c1=O ?
**A:** active

**Q:** Hey, what did the test say about COc1cc2c(cc1OC)CN(CCc1ccc(NC(=O)c3cccc4c(=O)c5cccc(OC)c5[nH]c34)cc1)CC2 ?
**A:** active

**Q:** Hey, what did the test say about C[C@H](NCc1ccc(OCc2cccc(F)c2)cc1)C(N)=O ?
**A:** active

**Q:** Hey, what did the test say about COc1cc2c(cc1-c1c(C)noc1C)ncc1[nH]c(=O)n([C@H](C)c3ccccn3)c12 ?
**A:** active

**Q:** Hey, what did the test say about NC[C@@H]1O[C@@H](O[C@H]2[C@@H](O)[C@H](O[C@@H]3[C@@H](O)[C@@H](N)C[C@H](N)[C@H]3O[C@H]3O[C@H](CN)[C@@H](O)[C@@H](O)[C@H]3N)O[C@H]2CO)[C@H](N)[C@@H](O)[C@@H]1O ?
**A:** inactive

**Q:** Hey, what did the test say about N=C(N)c1ccc2cc(OC(=O)c3ccc(N=C(N)N)cc3)ccc2c1 ?
**A:** inactive

**Q:** Hey, what did the test say about Cc1c(O)cccc1C(=O)N[C@@H](CSc1ccccc1)[C@H](O)CN1C[C@H]2CCCC[C@@H]2C[C@@H]1C(=O)NC(C)(C)C ?
**A:** inactive

**Q:** Hey, what did the test say about COc1ccc([C@@H]2CC(=O)c3c(O)cc(O[C@@H]4O[C@H](CO[C@@H]5O[C@@H](C)[C@H](O)[C@@H](O)[C@@H]5O)[C@@H](O)[C@H](O)[C@@H]4O)cc3O2)cc1O ?
**A:** inactive

**Q:** Hey, what did the test say about Cc1cc([C@@H](C)Nc2ccccc2C(=O)O)c2nc(N3CCOCC3)cc(=O)n2c1 ?
**A:** active

**Q:** Hey, what did the test say about Cc1cc(C2CCCCC2)n(O)c(=O)c1 ?
**A:** active

**Q:** Hey, what did the test say about CC1(C)CCC[C@@]2(C)[C@@H]1CC[C@@]1(C)OC(=O)C[C@H]21 ?
**A:** inactive

**Q:** Hey, what did the test say about CC[C@]12C=CCN3CC[C@@]4(c5cc([C@@]6(C(=O)OC)C[C@H]7C[C@@H](C(C)(F)F)CN(Cc8c6[nH]c6ccccc86)C7)c(OC)cc5N(C)[C@H]4[C@@](O)(C(=O)OC)[C@H]1OC(C)=O)[C@@H]32 ?
**A:** active

**Q:** Hey, what did the test say about CNC(=O)c1ccc2cc(C3(O)CCn4cncc43)ccc2c1 (stereo unspecified) ?
**A:** inactive

**Q:** Hey, what did the test say about CCc1ccc(CCOc2ccc(CC3SC(=O)NC3=O)cc2)nc1 (stereo unspecified) ?
**A:** inactive

**Q:** Hey, what did the test say about NC(=O)[C@@H](CCC(F)(F)F)N(Cc1ccc(-c2ncon2)cc1F)S(=O)(=O)c1ccc(Cl)cc1 ?
**A:** active

**Q:** Hey, what did the test say about CN1[C@H]2CC[C@H]1CC(OC(=O)c1c[nH]c3ccccc13)C2 (stereo partly specified) ?
**A:** inactive

====

experiment: Cellular viability qHTS for adrenocortical cancer (ACC) cell line NCI-H295R (AID 1963990); details: CellTiter-Glo ATP luminescence, 48 h; series mostly up to 46.1 µM; further: nearly all actives have a fitted effect of over 60% in size
Records with an inconclusive call do not appear. Activity calls are given as the source filed them. Calls come from the whole dose curve; as a rule, active = well fitted cell-killing curve with a large enough effect; inconclusive = small, poorly fitted or top-dose-only effect; inactive = flat fitted curve, though single readings scatter.
One label from this list, please: t = active, f = inactive

**Q:** Hey, what did the test say about CN1CCN(c2c(F)cc3c(=O)c(C(=O)O)cn4c3c2OCN4C)CC1 ?
**A:** f

**Q:** Hey, what did the test say about O=C(O)CN1C(=O)c2cccc3cccc(c23)C1=O ?
**A:** f

**Q:** Hey, what did the test say about NC[C@@](O)(c1ccc(Cl)cc1)c1ccc(-c2cn[nH]c2)cc1 ?
**A:** t

**Q:** Hey, what did the test say about NC(=O)c1cnc(N[C@@H]2CCCC[C@@H]2N)nc1Nc1cccc(-n2nccn2)c1 ?
**A:** t

**Q:** Hey, what did the test say about Cc1ccc(C(=O)c2ccc(CC(=O)O)n2C)cc1 ?
**A:** f

**Q:** Hey, what did the test say about C[C@H](c1ccc(F)cc1CCCC(=O)O)N(c1cc(F)ccc1F)S(=O)(=O)c1ccc(Cl)cc1 ?
**A:** f

====

assay: Quantitative highthroughput screen to assess conditional lethalithy of NOMO1 cells grown in RPMI1640 with untreated serum (RPMI+s) (AID 1963876); conditions: NOMO1 AML cells in RPMI+serum, CellTiter-Glo viability, 48 h; series mostly up to 45.8 µM; further: nearly all actives have a fitted effect of over 35% in size;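 on viability: 100% = DMSO wells and 0% = empty wells without cells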
Records with an inconclusive call do not appear. Calls of active or inactive are those of the source. Calls come from the whole dose curve; as a rule, active = well fitted cell-killing curve with a large enough effect; inconclusive = small, poorly fitted or top-dose-only effect; inactive = flat fitted curve, though single readings scatter.
One label from this list, please: active, inactive

**Q:** Hey, what did the test say about CC(=O)[C@H]1CC[C@H]2[C@@H]3CCC4=CC(=O)CC[C@]4(C)[C@H]3CC[C@]12C ?
**A:** inactive

**Q:** Hey, what did the test say about COc1ccc(-c2oc3c(CC=C(C)C)c(OC4O[C@H](CO)[C@@H](O)[C@H](O)[C@@H]4O)cc(O)c3c(=O)c2OC2O[C@@H](C)[C@H](O)[C@@H](O)[C@@H]2O)cc1 (some centres undefined) ?
**A:** inactive

**Q:** Hey, what did the test say about CC[C@]1(O)C[C@@H]2CN(CCc3c([nH]c4ccccc34)[C@@](C(=O)OC)(c3cc4c(cc3OC)N(C=O)[C@@H]3C45CCN4CC=C[C@](CC)([C@H]45)[C@@H](OC(C)=O)[C@]3(O)C(=O)OC)C2)C1 (some centres undefined) ?
**A:** inactive

**Q:** Hey, what did the test say about Cc1cnc(Nc2ccc(F)cc2Cl)nc1-c1c[nH]c(C(=O)N[C@H](CO)c2cccc(Cl)c2)c1 ?
**A:** active

====

experiment: Cellular viability qHTS for adrenocortical cancer (ACC) cell line NCI-H295R (AID 1963990); details: CellTiter-Glo ATP luminescence, 48 h; series mostly up to 46.1 µM; further: nearly all actives have a fitted effect of over 60% in size
Results filed as inconclusive are left out. Activity calls are given as the source filed them. The call rests on the fitted dose curve; in most records, active means well fitted cell-killing curve with a large enough effect; inconclusive means small, poorly fitted or top-dose-only effect; inactive means flat fitted curve, though single readings scatter.
One label from this list, please: label 1 (active), label 0 (inactive)

**Q:** Hey, what did the test say about CN(C)CCOc1ccccc1Cc1ccccc1 ?
**A:** label 0

**Q:** Hey, what did the test say about CC(=O)Nc1cccc(O)c1 ?
**A:** label 0

**Q:** Hey, what did the test say about Cn1cnc(-c2cc3nccc(Oc4ccc(NC(=S)NC(=O)Cc5ccccc5)cc4F)c3s2)c1 ?
**A:** label 1

**Q:** Hey, what did the test say about O=C(O)c1cn(C2CC2)c2cc(Cl)c(F)cc2c1=O ?
**A:** label 0

**Q:** Hey, what did the test say about CS(=O)c1ccc(-c2nc(-c3ccc(F)cc3)c(-c3ccncc3)[nH]2)cc1 (stereo unspecified) ?
**A:** label 0

**Q:** Hey, what did the test say about CC(C)Cc1ccc(C(C)C(=O)OCc2ccccn2)cc1 (stereo unspecified) ?
**A:** label 0

**Q:** Hey, what did the test say about COC1(c2sc3c(N4CCOCC4)nc(-c4cnc(N)nc4)nc3c2C)COC1 ?
**A:** label 1

**Q:** Hey, what did the test say about CCC(=O)c1ccc(O)cc1 ?
**A:** label 0

**Q:** Hey, what did the test say about COc1cccc2c1C(=O)c1c(O)c3c(c(O)c1C2=O)C[C@@](O)(C(=O)CO)C[C@@H]3O[C@H]1C[C@H](N)[C@H](O[C@@H]2CCCCO2)[C@H](C)O1 ?
**A:** label 1

**Q:** Hey, what did the test say about CC(C)CCOC(=O)c1ccc(N(C)C)cc1 ?
**A:** label 0

**Q:** Hey, what did the test say about COCCOC(=O)C1=C(C)NC(C)=C(C(=O)OC(C)C)C1c1cccc([N+](=O)[O-])c1 (stereo unspecified) ?
**A:** label 0

**Q:** Hey, what did the test say about O=C1NCC2(CCN(CCc3ccccc3)CC2)O1 ?
**A:** label 0

**Q:** Hey, what did the test say about CC1(C)O[C@@H]2C[C@H]3[C@@H]4CCC5=CC(=O)C=C[C@]5(C)[C@H]4[C@@H](O)C[C@]3(C)[C@]2(C(=O)CO)O1 ?
**A:** label 0

**Q:** Hey, what did the test say about CN(C)CCCN1c2ccccc2Sc2ccc(Cl)cc21 ?
**A:** label 1

**Q:** Hey, what did the test say about CCc1ccc(/C=C2/SC(=S)NC2=O)cc1 ?
**A:** label 1

**Q:** Hey, what did the test say about CCCC(=O)O[C@]1(C(=O)CC)CC[C@H]2[C@@H]3CCC4=CC(=O)CC[C@]4(C)[C@H]3[C@@H](O)C[C@@]21C ?
**A:** label 0

**Q:** Hey, what did the test say about O=C(Cc1cccc(OC(F)(F)F)c1)Nc1ccc(CCCCc2nnc(NC(=O)Cc3ccccn3)s2)nn1 ?
**A:** label 0

**Q:** Hey, what did the test say about O=C(N[C@@H](c1ccccc1)[C@@H]1CCCCN1)c1cccc(C(F)(F)F)c1Cl ?
**A:** label 1

**Q:** Hey, what did the test say about CC(C)(C)c1nnc(NS(=O)(=O)c2ccccc2)s1 ?
**A:** label 0

**Q:** Hey, what did the test say about O=C1c2cccc(O)c2C(=O)c2c(O)cc(CO)cc21 ?
**A:** label 0

**Q:** Hey, what did the test say about CCCCCCCCCCCCc1ccc(S(=O)(=O)Nc2nncs2)cc1 ?
**A:** label 0
